test system: MOLT-4 leukemia; experiment: NCI-60 one-dose screen, 48 h (100 = growth as untreated, 0 = no growth, -100 = all killed); details: 10 µM unless noted
About 83,000 compounds went through this panel and 20% of them were active in at least one assay; those are over-represented in the sample as a whole.
QUANTITY MEASURED: growth (%)

| COMPOUND | MEASURED TARGET | QUANTITY MEASURED | VAL |
| --- | --- | --- | --- |
| CCSc1ncnc2c1ncn2C1OC(CO)C(O)C1O (stereo unspecified) | MOLT-4 leukemia | growth | 21.4 |
| COC(=O)C(N)CSC(c1ccccc1)(c1ccccc1)c1ccccc1 (stereo unspecified) | MOLT-4 leukemia | growth | 8.4 |
| COc1cccc(-c2nn(-c3ccccc3)cc2-c2ccnc(NCCCO)c2)c1 | MOLT-4 leukemia | growth | 25.1 |
| CC1(C)CC[C@]2(C(=O)NCCNCCN)CC[C@]3(C)C(=CC[C@@H]4[C@@]5(C)CCC(=O)C(C)(C)[C@@H]5CC[C@]43C)[C@@H]2C1 | MOLT-4 leukemia | growth | 3.49 |
| C=C(C)[C@@H]1CC[C@]2(C)[C@H](CC[C@@H]3[C@H]4[C@H]5OC[C@@]4(CCC5(C)C)CC[C@]32C)[C@@]1(C)CCCN | MOLT-4 leukemia | growth | 10.5 |
| COc1ccc(C2(Cl)c3ccccc3N(c3ccccc3)c3ccccc32)cc1 | MOLT-4 leukemia | growth | 12.7 |
